# System: HepG2
# Test: drug sensitivity score (DSS) for viability; higher = more toxic; extreme values may be limits of the assay
# Protocol conditions: 72 h
Collected drug sensitivity score values appear next to each entry.

{"Compound": "CCOc1cn(-c2ccc(F)cc2C)nc1C(=O)Nc1ccc(Oc2ccnc3cc(OC)c(OC)cc23)c(F)c1", "drug sensitivity score": 2.2}
{"Compound": "N#CC[C@@H](C1CCCC1)n1cc(-c2ncnc3[nH]ccc23)cn1 [ruxolitinib-(S)]", "drug sensitivity score": 0}
{"Compound": "CC=CC1=C(C(=O)O)N2C(=O)[C@@H](NC(=O)[C@H](N)c3ccc(O)cc3)[C@H]2SC1 (mixture of isomers)", "drug sensitivity score": 0}
{"Compound": "CC(C)(C)c1ccc(NC(=O)N2CCN(c3ncccc3Cl)CC2)cc1", "drug sensitivity score": 0}
{"Compound": "CC(NC(=O)c1ccccc1/N=C/c1c(O)ccc2ccccc12)c1ccccc1 (stereo unspecified)", "drug sensitivity score": 0}
{"Compound": "Cc1cccc(-c2nn3c(c2-c2ccnc4ccc(C(N)=O)cc24)CCC3)n1", "drug sensitivity score": 0}
{"Compound": "NCc1cc(O)no1", "drug sensitivity score": 0}
{"Compound": "CCOC(=O)Nc1ccc(NCc2ccc(F)cc2)cc1N", "drug sensitivity score": 0}
{"Compound": "CC(=O)c1ccc2c(c1)[C@H](NC(=O)c1ccc(F)c(Cl)c1)[C@H](O)C(C)(C)O2", "drug sensitivity score": 0}
{"Compound": "CC(=O)Nc1ccc(OC(C)=O)cc1 [diacetamate]", "drug sensitivity score": 0}
{"Compound": "COc1cnc(-c2ccc(Cn3c(CC(C)(C)C(=O)O)c(SC(C)(C)C)c4cc(OC[C@@H]5Cc6ccccc6N5C(C)=O)ccc43)cc2)nc1", "drug sensitivity score": 0}
{"Compound": "N#CC(=C(/N)Sc1ccccc1N)/C(C#N)=C(/N)Sc1ccccc1N", "drug sensitivity score": 6.6}
{"Compound": "O=C(Oc1ccccc1C(=O)O)c1ccccc1O", "drug sensitivity score": 0}
{"Compound": "O=C(Nc1cccnc1)N1CCC(Cc2cccc(Oc3ccc(C(F)(F)F)cn3)c2)CC1", "drug sensitivity score": 3.6}
{"Compound": "N#Cc1cnc2cnc(NCc3cccnc3)cc2c1Nc1ccc(F)c(Cl)c1", "drug sensitivity score": 4.1}
{"Compound": "Nc1nccc(/C=C/c2ccccc2)n1", "drug sensitivity score": 0}
{"Compound": "CN(C)CC[C@H](CSc1ccccc1)Nc1ccc(S(=O)(=O)NC(=O)c2ccc(N3CCN(Cc4ccccc4-c4ccc(Cl)cc4)CC3)cc2)cc1[N+](=O)[O-]", "drug sensitivity score": 0}
{"Compound": "C[C@@H]1CN(CCCn2c3ccccc3c3ccccc32)C[C@H](C)N1", "drug sensitivity score": 0.6}
{"Compound": "CC[N+](C)(CC)CC(=O)Nc1c(C)cccc1C [N-methyllidocaine-iodide]", "drug sensitivity score": 0}
{"Compound": "CN(C)CC/C=C1/c2ccccc2Sc2ccc(Cl)cc21", "drug sensitivity score": 0.6}
{"Compound": "O=C(O)c1cc(O)c2c3nc4ccccc4oc-3cc(=O)c2n1", "drug sensitivity score": 0}
{"Compound": "COc1cc(NC(=O)c2cccc(-n3cc(NC(=O)Nc4cccc(C)c4)cn3)c2)cc(OC)c1OC", "drug sensitivity score": 0}
{"Compound": "COc1cc(Cc2cnc(N)nc2N)cc(OC)c1OC", "drug sensitivity score": 0}
{"Compound": "Cc1cc2c(C(C)C)c(O)c(O)c(C=O)c2c(O)c1-c1c(C)cc2c(C(C)C)c(O)c(O)c(C=O)c2c1O", "drug sensitivity score": 5.6}
{"Compound": "COc1ccc(C2=N[C@@H](c3ccc(Cl)cc3)[C@@H](c3ccc(Cl)cc3)N2C(=O)N2CCNC(=O)C2)c(OC(C)C)c1", "drug sensitivity score": 5.3}
{"Compound": "Fc1ccc(-n2cc(CCCCN3CCC4(CC3)OCc3ccccc34)c3ccccc32)cc1", "drug sensitivity score": 4.4}
{"Compound": "N[C@@H](Cc1cc(I)c(Oc2ccc(O)c(I)c2)c(I)c1)C(=O)O", "drug sensitivity score": 0}
{"Compound": "CCn1c(=O)c(-c2cc[nH]n2)cc2c(C)nc(N)nc21", "drug sensitivity score": 5.4}
{"Compound": "CC[C@H](C)C(=O)O[C@H]1C[C@H](O)C=C2C=C[C@H](C)[C@H](CC[C@@H](O)C[C@@H](O)CC(=O)O)[C@H]21 [PRAVASTATIN SODIUM]", "drug sensitivity score": 0}
{"Compound": "CCCC(CCC)C(=O)NCC(N)=O [valrocemide]", "drug sensitivity score": 0}
{"Compound": "Cn1cnc2c(F)c(Nc3ccc(Br)cc3F)c(C(=O)NOCCO)cc21", "drug sensitivity score": 23.5}
